Cited source for all entries: patent US20140120087A1

- ASSAY_SYSTEM: Mps-1 kinase (Homo sapiens)
- Sequence (P33981 whole entry): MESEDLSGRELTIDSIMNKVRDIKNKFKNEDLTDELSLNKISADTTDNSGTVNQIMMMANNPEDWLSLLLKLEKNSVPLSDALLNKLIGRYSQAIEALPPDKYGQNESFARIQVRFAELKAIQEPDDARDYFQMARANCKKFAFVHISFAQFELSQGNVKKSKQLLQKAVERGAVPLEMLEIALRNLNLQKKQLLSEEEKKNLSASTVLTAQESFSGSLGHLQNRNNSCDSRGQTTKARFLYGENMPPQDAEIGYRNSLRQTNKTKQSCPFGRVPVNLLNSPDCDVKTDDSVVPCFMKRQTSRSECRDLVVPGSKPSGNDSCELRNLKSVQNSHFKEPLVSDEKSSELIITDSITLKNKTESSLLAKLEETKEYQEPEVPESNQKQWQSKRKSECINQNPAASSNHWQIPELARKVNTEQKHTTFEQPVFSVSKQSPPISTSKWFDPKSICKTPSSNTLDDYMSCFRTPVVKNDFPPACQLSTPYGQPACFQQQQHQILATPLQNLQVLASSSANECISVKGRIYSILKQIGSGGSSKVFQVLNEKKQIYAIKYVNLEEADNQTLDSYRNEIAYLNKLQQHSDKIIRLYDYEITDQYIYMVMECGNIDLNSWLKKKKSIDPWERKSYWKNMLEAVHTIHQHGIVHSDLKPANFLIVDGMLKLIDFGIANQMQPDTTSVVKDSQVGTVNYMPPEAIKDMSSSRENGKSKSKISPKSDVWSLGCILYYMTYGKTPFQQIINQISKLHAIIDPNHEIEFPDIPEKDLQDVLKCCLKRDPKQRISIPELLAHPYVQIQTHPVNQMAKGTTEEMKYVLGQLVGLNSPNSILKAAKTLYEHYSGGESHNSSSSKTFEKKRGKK
- EXPERIMENT_SUMMARY: Mps-1 kinase assay with 2 mM ATP (TR-FRET)
Can you tell me log10 of IC50 for the items I'm about to list?
# log10 transformed; quantity=IC50; unit=nM

# map each compound to its log10 of IC50
1. CCOc1cc(C(=O)N(CC)CCOC)ccc1Nc1nc2ccc(-c3ccc(C(=O)NCC4CC4)cc3)cn2n1
2. Cc1cc(NS(C)(=O)=O)ccc1Nc1nc2ccc(-c3ccc(C(=O)NCc4ccc(F)cc4)cc3)cn2n1

Output line:
[1.41, 0.98]

###

Task for the reader: assign each of the following compounds its reported pIC50.
- ASSAY_SYSTEM: Mps-1 kinase (Homo sapiens)
- EXPERIMENT_SUMMARY: Mps-1 kinase assay with 2 mM ATP (TR-FRET)
Answers are plain numbers, as −log10 of the molar value.

For orientation, consider the following solved cases.
COc1cc(C#N)ccc1Nc1nc2ccc(-c3ccc(NC(=O)Cc4ccc(F)cc4)cc3)cn2n1: 8.39
Cc1cc(C(=O)NCC(F)(F)F)ccc1Nc1nc2ccc(-c3ccc(C(=O)NCc4ccc(F)cc4)cc3)cn2n1: 8.70
COc1cc(S(C)(=O)=O)ccc1Nc1nc2ccc(-c3ccc(NC(=O)Cc4ccccc4)cc3)cn2n1: 7.92
Cc1cc(S(C)(=O)=O)ccc1Nc1nc2ccc(-c3ccc(C(=O)NCc4ccc(Cl)cc4)cc3)cn2n1: 7.80

List the reported pIC50 of each compound below.
1. COc1cc(S(C)(=O)=O)ccc1Nc1nc2ccc(-c3ccc(C(=O)NCc4ccc(Cl)cc4)cc3)cn2n1
2. CCNC(=O)c1ccc(Nc2nc3ccc(-c4ccc(C(=O)NCC5CC5)cc4)cn3n2)c(OCC(F)(F)F)c1
3. CCCOc1cc(C(=O)N(CC)CC)ccc1Nc1nc2ccc(-c3ccc(NC(=O)Cc4ccc(F)cc4)cc3)cn2n1
4. COc1cc([S@@+](C)[O-])ccc1Nc1nc2ccc(-c3ccc(C(=O)NCc4ccc(F)cc4)cc3)cn2n1 (stereo in doubt)
5. CCN(Cc1ccc(Nc2nc3ccc(-c4ccc(C(=O)NCc5ccc(F)cc5)cc4)cn3n2)c(OC)c1)C(C)(C)CO

Output line:
1. 7.80
2. 7.72
3. 8.96
4. 8.59
5. 8.16

Value sought: pIC50, system Mps-1 kinase (Homo sapiens), item O=C(Cc1ccc(F)cc1)Nc1ccc(-c2ccc3nc(Nc4ccc(F)cc4OC(F)F)nn3c2)cc1 . Result: 8.05

###

- ASSAY_SYSTEM: UniProtKB P33981
- EXPERIMENT_SUMMARY: Mps-1 kinase assay with 2 mM ATP (TR-FRET)
I'd appreciate it if you could supply IC50 values for the items below.

CC(C)(O)CNC(=O)c1ccc(Nc2nc3ccc(-c4ccc(C(=O)NCc5ccc(F)cc5)cc4)cn3n2)c(OCC(F)(F)F)c1 [Example 02.22]: ≤ 1 nM
COc1ccc(Nc2nc3ccc(-c4ccc(NC(=O)Cc5ccc(F)cc5)cc4)cn3n2)c(OC)c1 [Example 12.18]: 1.5 nM
COc1cc(C(=O)NC(C)(C)CO)ccc1Nc1nc2ccc(-c3ccc(C(=O)NCc4ccc(F)cc4)c(C)c3)cn2n1 [Example 04.1]: 16 nM

Would you be so kind as to report IC50 for each listed record?
1. O=C(NCCO)c1ccc(Nc2nc3ccc(-c4ccc(C(=O)NCc5ccc(F)cc5)cc4)cn3n2)c(OCC(F)(F)F)c1 [Example 02.4]
2. CNC(=O)c1ccc(Nc2nc3ccc(-c4ccc(C(=O)NCc5ccc(F)cc5)cc4)cn3n2)c(OC)c1 [Example 02.13]
3. CS(=O)(=O)CCNC(=O)c1ccc(Nc2nc3ccc(-c4ccc(NC(=O)Cc5ccc(F)cc5)cc4)cn3n2)c(OCC(F)(F)F)c1 [Example 12.21]
4. COc1cc(C(C)(C)O)ccc1Nc1nc2ccc(-c3ccc(NC(=O)Cc4ccc(F)cc4)cc3)cn2n1 [Example 12.17]
5. COc1cc(S(C)(=O)=O)ccc1Nc1nc2ccc(-c3ccc(C(=O)NCc4ccc(F)cc4)cc3)cn2n1 [Example 02.6]

Output line:
≤ 1 nM
≤ 1 nM
≤ 1 nM
≤ 1 nM
4.3 nM

Quick request: IC50 for each listed item, please.
1. CCOCCNC(=O)c1ccc(Nc2nc3ccc(-c4ccc(C(=O)NCc5ccc(F)cc5)cc4)cn3n2)c(OC)c1 [Example 02.10]
2. COc1cc(C(=O)N(C)CCN(C)C(C)=O)ccc1Nc1nc2ccc(-c3ccc(NC(=O)Cc4ccc(F)cc4)cc3)cn2n1 [Example 01.14]
3. O=C(Cc1ccc(F)cc1)Nc1ccc(-c2ccc3nc(Nc4ccc(C(=O)NCCO)cc4OCC(F)(F)F)nn3c2)cc1 [Example 01.11]
4. Cc1cc(-c2ccc3nc(Nc4ccc(S(C)(=O)=O)cc4OCC(F)(F)F)nn3c2)ccc1C(=O)NCc1ccc(F)cc1F [Example 12.80]

Output line:
1: 2.3 nM; 2: ≤ 1 nM; 3: ≤ 1 nM; 4: 18 nM

Please give IC50 for each item listed below.
1. NC(=O)c1ccc(Nc2nc3ccc(-c4ccc(C(=O)NCc5ccc(F)cc5)cc4)cn3n2)c(OC(F)(F)F)c1 [Example 12.60]
2. COc1cc(C(=O)N(C)C)ccc1Nc1nc2ccc(-c3ccc(C(=O)NCc4ccc(F)cc4)cc3)cn2n1 [Example 12.46]

Output line:
1. 5 nM
2. 3.5 nM

###

- EXPERIMENT_SUMMARY: Hydrolytic stability assay at pH 2
- Format: physicochemical
- TEST_SETTINGS: buffer pH 2, 37° C., comparison compounds specified in WO2011/063908
OUTCOME_MEASURE: Hydrolysis at pH 2; Decay in % after 24 h

Below, 4 compounds whose answers are already recorded.
Cc1ccc(C#N)c(Nc2nc3ccc(-c4ccc(NC(=O)Cc5ccccc5)cc4)cn3n2)c1 [Example 10, reference compound]: ≧70%
N#Cc1ccccc1Nc1nc2ccc(-c3ccc(NC(=O)Cc4cccc(C(F)(F)F)c4)cc3)cn2n1 [Example 8, reference compound]: ≧70%
N#Cc1ccccc1Nc1nc2ccc(-c3ccc(NC(=O)Cc4cccc(F)c4)cc3)cn2n1 [Example 7, reference compound]: ≧70%
N#Cc1ccccc1Nc1nc2ccc(-c3ccc(NC(=O)Cc4ccc(F)c(F)c4)cc3)cn2n1 [Example 4, reference compound]: ≧70%

Batch request: Hydrolysis at pH 2; Decay in % after 24 h per item, same order as input.
1. N#Cc1ccccc1Nc1nc2ccc(-c3ccc(NC(=O)Cc4ccc(F)cc4)cc3)cn2n1 [Example 1, reference compound]
2. N#Cc1ccccc1Nc1nc2ccc(-c3ccc(NC(=O)Cc4ccccc4)cc3)cn2n1 [Example 6, reference compound]
3. N#Cc1c(F)cccc1Nc1nc2ccc(-c3ccc(NC(=O)Cc4ccccc4)cc3)cn2n1 [Example 2, reference compound]

Output line:
1. ≧90%
2. ≧90%
3. ≧20%

Would you mind giving Hydrolysis at pH 2; Decay in % after 24 h for every compound in the list below?
1. COc1cccc(CC(=O)Nc2ccc(-c3ccc4nc(Nc5ccccc5C#N)nn4c3)cc2)c1 [Example 5, reference compound]
2. N#Cc1ccccc1Nc1nc2ccc(-c3ccc(NC(=O)Cc4ccccc4F)cc3)cn2n1 [Example 3, reference compound]

Output line:
["≧70%", "≧70%"]

###

- ASSAY_SYSTEM: Mps-1 kinase (Homo sapiens)
- EXPERIMENT_SUMMARY: Mps-1 kinase assay with 10 μM ATP (TR-FRET)
Field: IC50. Provide a value for each of the molecules that follow.

Sample records with IC50:
CCOc1cc(C(=O)NCC(C)(C)O)ccc1Nc1nc2ccc(-c3ccc(NC(=O)Cc4ccc(F)cc4)cc3)cn2n1: ≤ 1 nM
COc1cc(S(C)(=N)=O)ccc1Nc1nc2ccc(-c3ccc(NC(=O)Cc4ccc(F)cc4)cc3)cn2n1 (stereo not drawn): ≤ 1 nM
COc1cc(S(C)(=O)=O)ccc1Nc1nc2ccc(-c3ccc(C(=O)NCc4ccc(C)cc4)cc3)cn2n1: ≤ 1 nM
COc1cc(C#N)ccc1Nc1nc2ccc(-c3ccc(NC(=O)Cc4ccc(F)cc4)cc3)cn2n1: ≤ 1 nM
COc1cc(C(=O)NCC(F)F)ccc1Nc1nc2ccc(-c3ccc(NC(=O)Cc4ccc(F)cc4)cc3)cn2n1: ≤ 1 nM
COc1cc(S(C)(=O)=O)ccc1Nc1nc2ccc(-c3ccc(NC(=O)Cc4ccc(F)c(C)c4)cc3)cn2n1: ≤ 1 nM
CC(C)S(=O)(=O)c1ccc(Nc2nc3ccc(-c4ccc(NC(=O)Cc5ccc(F)cc5)cc4)cn3n2)c(OC(F)F)c1: ≤ 1 nM
CCOc1cc(C(=O)N(CC)CCOC)ccc1Nc1nc2ccc(-c3ccc(C(=O)NCC4CC4)cc3)cn2n1: 1.4 nM
COc1cc(C(=O)N(C)CC(F)(F)F)ccc1Nc1nc2ccc(-c3ccc(NC(=O)Cc4ccc(F)cc4)cc3)cn2n1: ≤ 1 nM
O=C(NCc1ccc(F)cc1)c1ccc(-c2ccc3nc(Nc4ccc(C(=O)NCC(F)(F)F)cc4OCC(F)(F)F)nn3c2)cc1: ≤ 1 nM

// for each molecule below, give its IC50
1. COc1cc([S@@+](C)[O-])ccc1Nc1nc2ccc(-c3ccc(NC(=O)Cc4ccc(F)cc4)cc3)cn2n1 (stereo in doubt)
2. O=C(Cc1ccc(F)cc1)Nc1ccc(-c2ccc3nc(Nc4ccc(F)cc4OC(F)F)nn3c2)cc1
3. COc1cc(C(=O)NC(C)(C)CO)ccc1Nc1nc2ccc(-c3ccc(C(=O)NCc4ccc(F)cc4)c(F)c3)cn2n1
4. O=C(NCCF)c1ccc(Nc2nc3ccc(-c4ccc(C(=O)NCc5ccc(F)cc5)cc4)cn3n2)c(OCC(F)(F)F)c1
5. CS(=O)(=O)c1ccc(Nc2nc3ccc(-c4ccc(NC(=O)Cc5ccc(F)cc5)cc4)cn3n2)c(OC(F)F)c1
6. Cc1cc(C(N)=O)ccc1Nc1nc2ccc(-c3ccc(C(=O)NCc4ccc(F)cc4)cc3)cn2n1
7. COc1cc(CO)ccc1Nc1nc2ccc(-c3ccc(NC(=O)Cc4ccc(F)cc4)cc3)cn2n1
8. CCOc1cc(C(=O)N(C)CCO)ccc1Nc1nc2ccc(-c3ccc(NC(=O)Cc4ccc(F)cc4)cc3)cn2n1

Output line:
1. ≤ 1 nM
2. ≤ 1 nM
3. ≤ 1 nM
4. ≤ 1 nM
5. ≤ 1 nM
6. ≤ 1 nM
7. ≤ 1 nM
8. ≤ 1 nM

Please look at the items below and tell me IC50 for each one, in order.
1. CCN(C)C(=O)c1ccc(Nc2nc3ccc(-c4ccc(NC(=O)Cc5ccc(F)cc5)cc4)cn3n2)c(OC)c1
2. CCNC(=O)c1ccc(Nc2nc3ccc(-c4ccc(C(=O)NCc5ccc(F)cc5)cc4)cn3n2)c(C)c1

Output line:
≤ 1 nM
≤ 1 nM

Can you give me IC50 for all of these, one by one?
1. COc1cc(C(=O)NC(C)(C)CO)ccc1Nc1nc2ccc(-c3ccc(C(=O)NCc4ccc(F)cc4)cc3)cn2n1
2. CCN(CC)C(=O)c1ccc(Nc2nc3ccc(-c4ccc(NC(=O)Cc5ccc(F)cc5)cc4)cn3n2)c(OCC2CC2)c1
3. COc1cc(S(C)(=N)=O)ccc1Nc1nc2ccc(-c3ccc(C(=O)NCc4ccc(F)cc4)cc3)cn2n1 (stereo not drawn)
4. CCOc1cc(S(C)(=O)=O)ccc1Nc1nc2ccc(-c3ccc(C(=O)NCc4ccc(F)cc4)cc3)cn2n1
5. CCN(CC)C(=O)c1ccc(Nc2nc3ccc(-c4ccc(NC(=O)Cc5ccc(F)cc5)cc4)cn3n2)c(OCCOC)c1
6. COc1cc(S(C)(=O)=O)ccc1Nc1nc2ccc(-c3ccc(C(=O)NCc4ccc(F)cc4F)cc3)cn2n1

Output line:
≤ 1 nM
≤ 1 nM
≤ 1 nM
≤ 1 nM
≤ 1 nM
≤ 1 nM

# IC50 (molecule: CCOc1cc(C(=O)N(C)CC)ccc1Nc1nc2ccc(-c3ccc(NC(=O)Cc4ccc(F)cc4)cc3)cn2n1 ) is ≤ 1 nM
